Taken from patent US9883997B2.

test summary: Precursor cosmetic compositions evaluated for crystals content, i.e. solubility of solid agent in the liquid agent (Example 29)
Assay type: physicochemical
experimental context: 12HSA (16.6%) in OMC (50%), [S]/[L] 0.3, amide or comparator (33%); 24 hours
experimental endpoint: Appearance after cooling - observation at 24 hours, except as noted

1. CC1CCCN(C(=O)C23CC4CC(CC(C4)C2)C3)C1 (stereo not shown); translucent gel
2. O=C(N1CCCC2CCCCC21)C12CC3CC(CC(C3)C1)C2 (stereo not shown); translucent gel
3. CCCCCCCCCCCCCCCCCC(N)=O [octadecanamide, reference compound]; opaque solid
4. NC(=O)c1ccccc1C(N)=O [phthalamide, reference compound]; opaque solid

====

test summary: Precursor cosmetic compositions evaluated for crystals content, i.e. solubility of solid agent in the liquid agent (Example 29)
Format: physicochemical
experimental context: Cholesterol (16.6%) in OMC (50%), [S]/[L] 0.3, amide or comparator (33.3%); 24 hours
experimental endpoint: Appearance after cooling - observation at 24 hours, except as noted

1. O=C(N1CCCC2CCCCC21)C12CC3CC(CC(C3)C1)C2 (stereo not shown); Clear liquid
2. CC1CCCN(C(=O)C23CC4CC(CC(C4)C2)C3)C1 (stereo not shown); Clear liquid
